Recorded measurements of IC50, one per entry
- testedTarget: AuroraB (Homo sapiens, UniProt Q96GD4)
- Construct: 20 μL of AuroraB FL H is for a final volume of 41 μL; His
- Sequence (Q96GD4 whole entry): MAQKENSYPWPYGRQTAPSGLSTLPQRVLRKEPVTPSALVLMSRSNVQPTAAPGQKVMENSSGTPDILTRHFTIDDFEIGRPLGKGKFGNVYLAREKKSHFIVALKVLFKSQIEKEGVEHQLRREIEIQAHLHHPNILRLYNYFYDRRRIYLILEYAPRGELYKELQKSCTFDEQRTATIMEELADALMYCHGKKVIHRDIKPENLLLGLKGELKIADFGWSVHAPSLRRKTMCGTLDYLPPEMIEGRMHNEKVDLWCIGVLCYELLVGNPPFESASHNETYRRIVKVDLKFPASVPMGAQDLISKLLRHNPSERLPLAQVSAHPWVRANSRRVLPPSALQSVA
- experimentalProtocol: AuroraB Homogeneous Time Resolved Fluorescent (HTRF) kinase assay
- Format: biochemical
- assaySetup: average; read-out: AurB_IC50_IP (uM Avg)
Your answer is read as µM, so omit the unit and give the number.

CNC(=O)c1cc(Oc2ccc(Nc3nnc(-c4ccc(Cl)cc4)c4ccccc34)cc2)ccn1 [compound 361]	0.173

I'd like to know its IC50. The compound in question is COc1cnc2c(Oc3ccc(Nc4nnc(N5CC[C@@H]6CCCC[C@H]6C5)c5ccccc45)cc3)ccnc2c1 [compound 587] 0.033

Need IC50, item COc1cccc(-c2nnc(Nc3ccc(Oc4ccnc5cc(OC)cnc45)cc3)c3ccccc23)c1 [compound 139] 0.006

Which IC50 is listed for COc1cnc2c(Oc3ccc(Nc4ncc(-c5ccccc5)c5ccccc45)cc3)ccnc2c1 [compound 144] ? 0.02

Need IC50 of c1ccc(-c2nnc(Nc3ccc(Sc4ccnc5c4CCCN5)cc3)c3ccccc23)cc1 [compound 577] , thanks. 0.021

IC50 for COc1cccc(-c2nnc(Nc3ccc(Oc4ccnc5cc(C#N)ccc45)cc3)c3ccccc23)n1 [compound 102] ? 0.003

Param item = COc1cnc2c(Oc3ccc(Nc4nnc(-c5cncnc5)c5ccccc45)cc3)ccnc2c1 [compound 215] ; retrieve measured IC50. 0.024

For the compound shown here, COCCn1ccc2nccc(Sc3ccc(Nc4nnc(-c5ccc(Cl)cc5)c5ccccc45)cc3)c21 [compound 469] , give the reported IC50. 0.053
